- STUDY_SYSTEM: T1, human chemokine (C-C motif) receptor 8 (CCR8) protein (human, UniProt P51685 1-355)
- T1 construct: whole, on cells; also called human CCR8
- TEST: cell binding, CCR8-expressing U2OS cells, curve fit
OBSERVED_PROPERTY: Bottom
Respond with the number and no other words.

Examples from the recorded data:
[
  {
    "BINDER": "137-H3L3 (antibody, V domains shown, Humanized 137D1H10) VH: EVQLVESGGGLVQPGGSLKLSCAASGFTFNTYAMNWVRQASGKGLEWVARIRSKANNYATYYADSVKDRFTISRDDSKNTLYLQMNNLKTEDTAVYYCVRDRSRGEDYAMDYWGQGTLVTVSS VL: DIVMTQSPLSLPVTPGEPVSISCRSSKSLLHSNANTYLYWFLQKPGQSPQLLIYRMSNLASGVPDRFSGSGSGTAFTLKISRVEAEDVGVYYCMQHLEYPFTFGQGTKLEIK",
    "Bottom": 2100
  },
  {
    "BINDER": "137-H2L2 (antibody, V domains shown, Humanized 137D1H10) VH: EVQLVESGGGLVQPGGSLKLSCAASGFTFNTYAMNWVRQASGKGLEWVGRIRSKANNYATYYADSVKDRFTISRDDSKNTAYLQMNNLKTEDTAVYYCVRDRSRGEDYAMDYWGQGTLVTVSS VL: DIVMTQSPLSLPVTPGEPASISCRSSKSLLHSNANTYLYWFLQKPGQSPQLLIYRMSNLASGVPDRFSGSGSGTAFTLKISRVEAEDVGVYYCMQHLEYPFTFGQGTKLEIK",
    "Bottom": 915
  }
]

Shift focus to the following entry.
Ask | Could you share which Bottom value was measured for 137-xi (antibody, V domains shown, also called 137D1H10; chimeric 137D1H10) VH: EVQLVESGGGLVQPKGSLKLSCTASGFTFNTYAMNWVRQAPGKGLEWVARIRSKANNYATYYADSVKDRFTISRDDSQRILYLQMNNLKAEDTAMYYCVRDRSRGEDYAMDYWGQGTSVTVSS VL: DIVMTQAAPSVPVTPGESVSISCRSSKSLLHSNGNTYLYWFLQRPGQSPQLLIYRMSNLASGVPDRFSGSGSGTAFTLRISRVEAEDVGVYYCMQHLEYPFTFGAGTKLELK ?
Reply | 2170

Value source: patent US20220195057A1
